Target Or Test System: cyclophilin A (CypA) (Homo sapiens (Human))
Sequence (P62937 whole entry): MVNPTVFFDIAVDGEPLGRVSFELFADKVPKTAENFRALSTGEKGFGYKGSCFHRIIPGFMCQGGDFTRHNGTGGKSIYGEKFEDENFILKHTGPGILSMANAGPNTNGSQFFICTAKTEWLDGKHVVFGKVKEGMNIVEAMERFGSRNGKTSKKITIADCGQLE
Assay Text: Inhibitor binding to cyclophilin proteins by SPR, CypA;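 also: Single-cycle kinetics on a Biacore T200, compound injected at several concentrations for 1 min each at 50 µL/min, then 10 min dissociation, in HEPES pH 7.4 buffer with 3% DMSO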
Design: unit not given here
Measurement Setup: 1:1 binding model
Starred links: 1 amine or outer side, 2 acyl side, 3 side chain; linkers in the order of their positions; H or OH if unused. Non-standard residues stand in square brackets, D forms with d. Residues, ends and D or L forms follow the SMILES beside them. X51 = C[C@H](CN1CCC2(COC2)C1)[C@@H](C(=O)[*:2])N(C)[*:1]; MeBmt = C/C=C/C[C@@H](C)[C@@H](O)[C@H](NC)C(=O)O; NMeL = CN[C@@H](CC(C)C)C(=O)O; NMeV = CN[C@H](C(=O)O)C(C)C; dNMeA = CN[C@H](C)C(=O)O; Abu = CC[C@H](N)C(=O)O
Measurement Type: CypA Kd

molecule="C/C=C/C[C@@H](C)[C@@H](O)[C@H]1C(=O)N[C@@H](CC)C(=O)N(C)[C@H](CCCNC)C(=O)N(C)[C@@H]([C@H](C)COC)C(=O)N[C@@H](C(C)C)C(=O)N(C)[C@@H](CC(C)C)C(=O)N[C@@H](C)C(=O)N[C@H](C)C(=O)N(C)[C@@H](CC(C)C)C(=O)N(C)[C@@H](CC(C)C)C(=O)N(C)[C@@H](C(C)C)C(=O)N1C (stereo in doubt)" observed_measurement=6.3
molecule="C/C=C/C[C@@H](C)[C@@H](O)[C@H]1C(=O)N[C@@H](CC)C(=O)N(C)[C@H](C(C)C)C(=O)N(C)C([C@H](C)COC)C(=O)N[C@@H](C(C)C)C(=O)N(C)[C@@H](CC(C)C)C(=O)N[C@@H](C)C(=O)N[C@H](C)C(=O)N(C)[C@@H](CC(C)C)C(=O)N(C)[C@@H](CC(C)C)C(=O)N(C)[C@@H](C(C)C)C(=O)N1C (stereo in doubt)" observed_measurement=13.7
molecule="C/C=C/C[C@@H](C)[C@@H](O)[C@H]1C(=O)N[C@@H](CC)C(=O)N(C)[C@H](C)C(=O)N(C)[C@@H]([C@H](C)CN2CCC3(COC3)C2)C(=O)N[C@@H](C(C)C)C(=O)N(C)[C@@H](CC(C)C)C(=O)N[C@@H](C)C(=O)N[C@H](C)C(=O)N(C)[C@@H](CC(C)C)C(=O)N(C)[C@@H](CC(C)C)C(=O)N(C)[C@@H](C(C)C)C(=O)N1C [Compound 2.5.33] (cyclo(A[dA][NMeL][NMeL][NMeV][MeBmt][Abu][dNMeA][X51]V[NMeL]))" observed_measurement=1.1

Attribution: patent US9566312B2
